Measured values drawn from patent US10940139B2 for this set.

# Experimental Target: KRas G12D/Q61H double mutant (Homo sapiens (Human), UniProt P01116, G12D/Q61H)
# Sequence (P01116-2 other isoform, or with tags, fused parts or gaps G12D/Q61H): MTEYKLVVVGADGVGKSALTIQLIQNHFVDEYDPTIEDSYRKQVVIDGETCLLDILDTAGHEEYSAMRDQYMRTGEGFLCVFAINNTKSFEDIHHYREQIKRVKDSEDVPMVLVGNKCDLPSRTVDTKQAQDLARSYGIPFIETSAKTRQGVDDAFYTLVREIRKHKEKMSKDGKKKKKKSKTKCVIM
# Experimental Protocol: Ras GTP binding domain inhibition assay (labeled GTP)
# Conditions Used: 20 μM compound; read-out: % Inhibition at 20 μM KRas G12D Q61H
Quick reference for inhibition at 20 µM among some compounds

Compound: Cc1cnc(-c2ccccn2)nc1NC(=O)COCc1ccc(C#N)cc1 [drawing 2815]
Experimental Target: KRas G12D/Q61H double mutant (Homo sapiens (Human), UniProt P01116, G12D/Q61H)
inhibition at 20 µM: 25 to 50%

Compound: N#Cc1cccc(N2CCN(C(=O)c3csc4c(O)nc(-c5ccccn5)nc34)CC2)c1 [drawing 2755]
Experimental Target: KRas G12D/Q61H double mutant (Homo sapiens (Human), UniProt P01116, G12D/Q61H)
inhibition at 20 µM: 1 to 25%

Compound: COc1ccc(N2CCN(C(=O)c3csc4c(O)nc(-c5ccccn5)nc34)CC2)c(OC)c1 [drawing 2759]
Experimental Target: KRas G12D/Q61H double mutant (Homo sapiens (Human), UniProt P01116, G12D/Q61H)
inhibition at 20 µM: 25 to 50%

Compound: COC(=O)c1cc2nc(-c3ccccn3)nc(O)c2s1 [drawing 2907]
Experimental Target: KRas G12D/Q61H double mutant (Homo sapiens (Human), UniProt P01116, G12D/Q61H)
inhibition at 20 µM: 51 to 75%

Compound: COc1ccc(-c2csc3c(O)nc(-c4ccccn4)nc23)c(C)c1 [drawing 2881]
Experimental Target: KRas G12D/Q61H double mutant (Homo sapiens (Human), UniProt P01116, G12D/Q61H)
inhibition at 20 µM: 51 to 75%

Compound: CCN(CCNC(=O)c1cc(-c2cccnc2)on1)c1cccc(C)c1
Experimental Target: KRas G12D/Q61H double mutant (Homo sapiens (Human), UniProt P01116, G12D/Q61H)
inhibition at 20 µM: 25 to 50%

Compound: O=C(Nc1nnc(-c2ccccn2)[nH]1)c1ccc(N2CCCCC2=O)cc1
Experimental Target: KRas G12D/Q61H double mutant (Homo sapiens (Human), UniProt P01116, G12D/Q61H)
inhibition at 20 µM: 25 to 50%

Compound: Cc1noc(C)c1CNc1ccccc1Cc1ccccc1
Experimental Target: KRas G12D/Q61H double mutant (Homo sapiens (Human), UniProt P01116, G12D/Q61H)
inhibition at 20 µM: 25 to 50%

Compound: COc1cc(CCNC(=O)c2csc3nc(-c4ccccn4)nc(N4CCOCC4)c23)ccn1 [drawing 2747]
Experimental Target: KRas G12D/Q61H double mutant (Homo sapiens (Human), UniProt P01116, G12D/Q61H)
inhibition at 20 µM: 1 to 25%

Compound: CCOC(=O)c1ccc(C(=O)NCCc2ccc(C(F)(F)F)cc2)nc1C
Experimental Target: KRas G12D/Q61H double mutant (Homo sapiens (Human), UniProt P01116, G12D/Q61H)
inhibition at 20 µM: 25 to 50%

Compound: N#Cc1ccc(CC(=O)Nc2ccnc(-c3ccccn3)n2)cc1 [drawing 2700]
Experimental Target: KRas G12D/Q61H double mutant (Homo sapiens (Human), UniProt P01116, G12D/Q61H)
inhibition at 20 µM: 25 to 50%

Compound: CCc1cc(CNc2cc(C)c([N+](=O)[O-])c(C(=O)OC)c2)on1
Experimental Target: KRas G12D/Q61H double mutant (Homo sapiens (Human), UniProt P01116, G12D/Q61H)
inhibition at 20 µM: 25 to 50%

Compound: COc1ccccc1C1CN(C(=O)c2csc3c(O)nc(-c4ccccn4)nc23)CCO1 (stereo not drawn) [drawing 2767]
Experimental Target: KRas G12D/Q61H double mutant (Homo sapiens (Human), UniProt P01116, G12D/Q61H)
inhibition at 20 µM: 51 to 75%

Compound: CCOCCC1CCN(C(=O)c2csc3c(O)nc(-c4ccccn4)nc23)CC1 [drawing 2676]
Experimental Target: KRas G12D/Q61H double mutant (Homo sapiens (Human), UniProt P01116, G12D/Q61H)
inhibition at 20 µM: 51 to 75%

Compound: CC(C)Cn1cnnc1C1CCCN1c1ccc(C#N)c(C(F)(F)F)c1 (stereo not drawn)
Experimental Target: KRas G12D/Q61H double mutant (Homo sapiens (Human), UniProt P01116, G12D/Q61H)
inhibition at 20 µM: 25 to 50%

Compound: Cc1noc(CN2CCOC(c3nc(-c4ccccc4)cs3)C2)n1 (stereo not drawn)
Experimental Target: KRas G12D/Q61H double mutant (Homo sapiens (Human), UniProt P01116, G12D/Q61H)
inhibition at 20 µM: 1 to 25%

Compound: CN1CCC(C(=O)Nc2nnc(-c3ccccn3)[nH]2)CC1=O (stereo not drawn)
Experimental Target: KRas G12D/Q61H double mutant (Homo sapiens (Human), UniProt P01116, G12D/Q61H)
inhibition at 20 µM: 25 to 50%

Compound: O=C(c1cc(-c2ccc(F)cc2)[nH]n1)N(Cc1ccco1)C1CCCC1
Experimental Target: KRas G12D/Q61H double mutant (Homo sapiens (Human), UniProt P01116, G12D/Q61H)
inhibition at 20 µM: 1 to 25%

Compound: Cc1cnc(-c2ccccn2)nc1NC(=O)C1CCCc2cc(C#N)ccc21 (stereo not drawn) [drawing 2827]
Experimental Target: KRas G12D/Q61H double mutant (Homo sapiens (Human), UniProt P01116, G12D/Q61H)
inhibition at 20 µM: 51 to 75%

Compound: Cc1ccc(OCc2nnc(SCC3CCCCO3)o2)cc1 (stereo not drawn)
Experimental Target: KRas G12D/Q61H double mutant (Homo sapiens (Human), UniProt P01116, G12D/Q61H)
inhibition at 20 µM: 1 to 25%

Compound: O=C(c1csc2c(O)nc(-c3ccccn3)nc12)N1CCNC(c2ccccc2F)C1 (stereo not drawn) [drawing 2776]
Experimental Target: KRas G12D/Q61H double mutant (Homo sapiens (Human), UniProt P01116, G12D/Q61H)
inhibition at 20 µM: 25 to 50%

Compound: O=C(Nc1nnc(-c2ccccn2)[nH]1)C(F)(F)c1ccccc1
Experimental Target: KRas G12D/Q61H double mutant (Homo sapiens (Human), UniProt P01116, G12D/Q61H)
inhibition at 20 µM: 25 to 50%

Compound: COc1ccc(OC)c(S(=O)(=O)N(Cc2ccccc2)Cc2ccccc2)c1
Experimental Target: KRas G12D/Q61H double mutant (Homo sapiens (Human), UniProt P01116, G12D/Q61H)
inhibition at 20 µM: 25 to 50%

Compound: Oc1nc(-c2ccccn2)nc2scc(Br)c12 [drawing 2703]
Experimental Target: KRas G12D/Q61H double mutant (Homo sapiens (Human), UniProt P01116, G12D/Q61H)
inhibition at 20 µM: 51 to 75%
